We begin with a simple list: items and their reported Percent Control.
- Tested on: p38-alpha
- Construct: gene MAPK14
- MEASUREMENT PARAMETERS: Compound Concentration (nM):1000;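 further: KINOMEscan scanMAX binding as percent activity remaining versus control; lower means stronger binding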
Give your result in % as a bare value.

{"COMPOUND": "Cc1cc(O)cc(C)c1/C=C/c1cncc(C(N)=O)c1 [GW435821X]", "EXPERIMENTAL RESULT": 100}
{"COMPOUND": "NS(=O)(=O)c1ccc(N/N=C2\\C(=O)Nc3ccc(Cl)cc32)cc1 [GW280670X]", "EXPERIMENTAL RESULT": 100}

Q: Could you tell me which Percent Control is on file for CCn1c(-c2nonc2N)nc2c(C#CC(C)(C)O)nc(OCCNC)cc21.Cl ?
Ans: 100

Q: Could you tell me which Percent Control is on file for COc1ccc2[nH]c3c4[nH]c5ccc(OC)cc5c4c4c(c3c2c1)C(=O)NC4=O [GW296115X] ?
Ans: 87

* * *

- System: ERN1
- MEASUREMENT PARAMETERS: Compound Concentration (nM):1000
Note to self: Percent Control under 70% means Met, ties and anything higher get Not met.

Q: Determine if Cl.O=C(Nc1ccc(Oc2ccc3[nH]c(NC(=O)c4ccccc4)nc3c2)cc1)Nc1cc(C(F)(F)F)ccc1F [GW709042A] shows Percent Control strictly lower than 70%.
Ans: Not met

Q: Determine if COc1ccccc1-c1cc(/C=C2\C(=O)Nc3ncc(Br)cc32)cc(Br)c1O [GW442130X] shows Percent Control strictly lower than 70%.
Ans: Not met

* * *

We begin with a simple list: items and their reported Percent Control.
- Test system: PRKCD
- MEASUREMENT PARAMETERS: Compound Concentration (nM):1000
Give your result in % as a bare value.

Examples with their reported Percent Control follow.
{"MOLECULE": "O=C1Nc2ccc(C(=O)c3ccco3)cc2C1=Cc1cc(Cl)c(O)c(Cl)c1 [GW406108X]", "Percent Control [%]": 100}
{"MOLECULE": "CCn1c(-c2nonc2N)nc2c(C#CC(C)(C)O)nc(OCCNC)cc21.Cl", "Percent Control [%]": 40}
{"MOLECULE": "COc1cc2ncn(-c3cc(O[C@H](C)c4ccccc4Cl)c(C(N)=O)s3)c2cc1OC [GSK237701A]", "Percent Control [%]": 100}
{"MOLECULE": "COc1ccc2cc(-c3c(-c4ccncc4)nc(-c4ccc(S(C)(=O)=O)cc4C)n3C)ccc2c1", "Percent Control [%]": 91}
{"MOLECULE": "NS(=O)(=O)c1ccc(N/N=C2\\C(=O)Nc3ccc(-c4cnco4)cc32)cc1", "Percent Control [%]": 75}

Q: Could you tell me which Percent Control is on file for NS(=O)(=O)c1ccc(Nc2ncc(-c3ccccc3)o2)cc1 [GW572399X] ?
Ans: 100

Q: Could you tell me which Percent Control is on file for C/C(Nc1ccc(S(N)(=O)=O)cc1)=C1/C(=O)Nc2ccccc21 [GW335962X] ?
Ans: 95

Q: Could you tell me which Percent Control is on file for COC(=O)Nc1nc2ccc(Oc3ccc(NC(=O)Nc4cc(C(F)(F)F)ccc4F)cc3)cc2s1.Cl [GW693917A] ?
Ans: 100

* * *

- Test system: ALK(C1156Y)
- MEASUREMENT PARAMETERS: Compound Concentration (nM):1000
Kind request: treat 80% as inclusive, so Percent Control at 80% or higher is satisfied, anything lower is not satisfied.

Q: Is Percent Control for NS(=O)(=O)c1ccc(N/N=C2\C(=O)Nc3ccc(C(=O)NCCc4c[nH]cn4)cc32)cc1 [GW300660X] at or above 80%?
Ans: satisfied

Taken from paper PMC7826789.
